- measurement_description: Solubility data of compounds in water over the pH range
- Assay type: physicochemical
- study_conditions: pH 5.1, pH 5.10; read-out: Conc (solubility in water)
Where a SMILES comes first, the peptide text is derived from it. Bridges are numbered along the chain shown (N, C = ends). [ ]: non-standard residue; d: D form. The star is where a group is joined. Palmitoyl(16-(5-tetrazolyl)) = O=C(CCCCCCCCCCCCCCCc1nnn[nH]1)*; Lys(CH2CO2H)2 = N[C@@H](CCCCN(CC(=O)O)CC(=O)O)C(=O)O; Hyp = O=C(O)[C@@H]1C[C@@H](O)CN1; Nle = CCCC[C@H](N)C(=O)O; AEEA = NCCOCCOCC(=O)O
endpoint_name: solubility at 3 days

Task: Identify measured solubility at 3 days associated with CCCC[C@H](NC(=O)[C@H](CCCCN(CC(=O)O)CC(=O)O)NC(=O)[C@H](CO)NC(=O)[C@H](CCC(N)=O)NC(=O)[C@H](CO)NC(=O)CNC(=O)COCCOCCNC(=O)CCCCCCCCCCCCCCCc1nnn[nH]1)C(=O)N[C@H]1CCC(=O)NCCCC[C@@H](C(N)=O)NC(=O)[C@H](Cc2c[nH]c3ccccc23)NC(=O)[C@H](CCCNC(=N)N)NC(=O)[C@@H](Cc2ccccc2)NC(=O)[C@@H]2C[C@@H](O)CN2C1=O [Example 5] ({Palmitoyl(16-(5-tetrazolyl))-AEEA}-GSQS[Lys(CH2CO2H)2][Nle]E[Hyp][dF]RWK-NH2; lactam 7-12)
Result: 25 µM
